binding signal listing for selected binders.
molecular target: von Willebrand factor A1 domain (human) (Homo sapiens, UniProt P04275 SEQ:13-246); experiment: filter; 100 nM protein
Sequence (P04275 1238-1471 T1381A): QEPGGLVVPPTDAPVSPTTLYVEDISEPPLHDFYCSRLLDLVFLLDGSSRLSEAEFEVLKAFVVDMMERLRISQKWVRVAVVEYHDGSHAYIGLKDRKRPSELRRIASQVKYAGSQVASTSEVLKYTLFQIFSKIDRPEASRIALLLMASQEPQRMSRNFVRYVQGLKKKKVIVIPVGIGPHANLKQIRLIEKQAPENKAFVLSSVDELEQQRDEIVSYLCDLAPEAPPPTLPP
measure: binding signal

                                     binder                    result
0  AMX199.F11 (ssDNA) DNA: CTACCTACGATCTGACTAGCGAAACACTAGGTTGGTTAGGATTGGTGTGTTTCTGCTCTGCTTACTCTCATGTAGTTCC  1.44 ratio to no protein
1  AMX200.D11 (ssDNA) DNA: CTACCTACGATCTGACTAGCGGAATAAGAATGCTGATGGATTGCTCAGGTCTGCTGGCTGCTTACTCTCATGTAGTTCC  3.34 ratio to no protein
2  AMX200.H8 (ssDNA) DNA: CTACCTACGATCTGACTAGCTGAGTAGTCAGTAATTTTTTATTATGGTTTGGTGGGCCTGGCTTACTCTCATGTAGTTCC  1.86 ratio to no protein

Hello, the source for this data is patent US20060264369, in case you need it.
